assay-system: human Retinoid X Receptor beta (RXRb), RXRB (gene 6257) (UniProt P28702)
Sequence (P28702 whole entry, looked up): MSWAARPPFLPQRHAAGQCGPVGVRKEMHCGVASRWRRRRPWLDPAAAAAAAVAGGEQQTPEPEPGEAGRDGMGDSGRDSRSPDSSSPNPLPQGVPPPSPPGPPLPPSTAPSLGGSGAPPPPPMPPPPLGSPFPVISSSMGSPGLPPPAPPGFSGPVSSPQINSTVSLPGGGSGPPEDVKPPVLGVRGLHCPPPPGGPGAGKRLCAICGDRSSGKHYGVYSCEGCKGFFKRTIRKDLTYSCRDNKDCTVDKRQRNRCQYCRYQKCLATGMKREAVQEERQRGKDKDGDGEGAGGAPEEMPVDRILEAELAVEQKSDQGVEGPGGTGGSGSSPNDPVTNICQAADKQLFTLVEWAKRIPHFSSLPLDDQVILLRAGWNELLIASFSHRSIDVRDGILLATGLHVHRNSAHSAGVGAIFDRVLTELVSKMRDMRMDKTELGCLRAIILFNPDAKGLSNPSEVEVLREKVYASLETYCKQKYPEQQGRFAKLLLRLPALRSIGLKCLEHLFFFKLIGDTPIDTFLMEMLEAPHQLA
measurement-description: ATG_RXRb_TRANS: Attagene TRANS-FACTORIAL HepG2 Assay for human Retinoid X Receptor beta (RXRb) (AID 2283013)
Records with an inconclusive call do not appear. The source made the active and inactive calls. Rule for the calls: active = hit-call score of the fitted dose curve at least 0.9, where 1 is the maximum; inconclusive = response in the unintended direction; inactive = score below 0.9.
recorded-metric: AC50

Example results:
| compound | AC50 |
| --- | --- |
| OCC(F)(F)C(F)(F)C(F)(F)F | inactive |
| O=C(O)C(F)(F)C(F)(F)C(F)(F)C(F)(F)C(F)(F)C(F)(F)C(F)(F)C(F)(F)C(F)(F)C(F)(F)C(F)(F)C(F)(F)C(F)(F)F | inactive |
| OCCCC(F)(F)C(F)(F)C(F)(F)F | inactive |
| C=CC/C=C/C/C=C/C/C=C/C | 100 µM (active) |
| [Co] | inactive |
| CCCCCCC(C)OC(=O)CCCCC(=O)OC(C)CCCCCC (stereo not given) | 16.3 µM (active) |
| FC(F)(I)C(F)(F)C(F)(F)C(F)(F)I | inactive |
| O=S(=O)(OCCOC(F)(F)F)C(F)(F)F | inactive |

Return value of AC50 for input CCCCCC=O , no commentary.
inactive

Return value of AC50 for input CCc1ccc(C(c2ccc(CC)cc2)C(Cl)Cl)cc1 , no commentary.
inactive

Return value of AC50 for input C(=C(c1ccccc1)c1ccccc1)c1ccccc1 , no commentary.
6.11 µM (active)

Return value of AC50 for input CCO[Si](CCC(F)(F)C(F)(F)C(F)(F)C(F)(F)C(F)(F)C(F)(F)F)(OCC)OCC , no commentary.
inactive

Return value of AC50 for input CNC(=S)NC , no commentary.
inactive

Return value of AC50 for input C=CC(=O)OCC(F)(F)C(F)(F)C(F)(F)C(F)(F)COC(=O)C=C , no commentary.
1.1 µM (active)
